Just for reference, patent US8637537B2 is where these values come from.

# Target desc: human recombinant GST-PAK1-KD protein (Homo sapiens, UniProt Q13153)
# Construct: residues #249-545 of human PAK1, UniProtKP/Swiss Q13153; His6 (N); made in house; host or cells: Sf9 insect cells, pAcGP67 baculovirus expression vector
# Sequence (Q13153 249-545): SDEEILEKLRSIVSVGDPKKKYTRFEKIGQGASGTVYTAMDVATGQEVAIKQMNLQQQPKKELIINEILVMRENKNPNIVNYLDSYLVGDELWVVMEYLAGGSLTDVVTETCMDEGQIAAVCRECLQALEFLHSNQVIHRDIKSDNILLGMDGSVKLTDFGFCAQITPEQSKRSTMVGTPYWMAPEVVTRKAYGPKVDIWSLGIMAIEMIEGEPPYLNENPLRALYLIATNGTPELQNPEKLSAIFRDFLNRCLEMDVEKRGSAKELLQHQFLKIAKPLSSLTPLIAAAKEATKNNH
# Assay procedure: GST-PAK1-KD (kinase domain) biochemical assay, microfluidic mobility shift
# Assay conditions: Table II, PAK1 Ki class; read-out: Ki
pKi: −log10 of the molar value.
Measured pKi, listed per entry for reference.

| Molecule | pKi |
| --- | --- |
| CN(C)CCCN(Cc1cc(F)cc2[nH]ncc12)c1nccc(Nc2cc(C3CC3)[nH]n2)n1 | > 7.30 |
| C[C@H](Nc1ncc(F)c(Nc2cc(C3CC3)[nH]n2)n1)c1cc(F)cc2[nH]ncc12 | > 7.30 |
| CN(C)CCN(Cc1cc(F)cc2[nH]ncc12)c1ncc(F)c(Nc2cc(C3CC3)[nH]n2)n1 | > 7.30 |
| CN(Cc1cccc2[nH]ncc12)c1nccc(Nc2cc(C3CC3)[nH]n2)n1 | > 7.30 |
| c1cc(Nc2cc(C3CC3)[nH]n2)nc(N(Cc2ccc3[nH]cnc3c2)C2CCNCC2)n1 | > 7.30 |
| Fc1cc(CNc2nccc(Nc3cc(C4CC4)[nH]n3)n2)c2nc[nH]c2c1 | 6.60 to 7.30 |
| Fc1cc(CNc2ncc(Cl)c(Nc3cc(C4CC4)[nH]n3)n2)c2cn[nH]c2c1 | 6.60 to 7.30 |
| Fc1ccc2[nH]ccc2c1CNc1nccc(Nc2cc(C3CC3)[nH]n2)n1 | > 7.30 |
| OCCN(Cc1cccc2[nH]ncc12)c1nccc(Nc2cc(C3CC3)[nH]n2)n1 | > 7.30 |
| Cc1nc2c(CNc3nccc(Nc4cc(C5CC5)[nH]n4)n3)cc(F)cc2[nH]1 | 6.60 to 7.30 |
| CC(CO)N(Cc1cc(F)cc2[nH]ncc12)c1nccc(Nc2cc(C3CC3)[nH]n2)n1 (stereo not drawn) | > 7.30 |
| CNCCN(Cc1cc(F)cc2[nH]ncc12)c1nccc(Nc2cc(C3CC3)[nH]n2)n1 | > 7.30 |
| Fc1cc(CNc2nccc(Nc3cc([C@H]4C[C@@H]4F)[nH]n3)n2)c2cc[nH]c2c1 | > 7.30 |
| Fc1cnc(NCc2cc(Cl)cc3[nH]ncc23)nc1Nc1cc(C2CC2)[nH]n1 | > 7.30 |
| Clc1c(CNc2nccc(Nc3cc(OCC4CC4)[nH]n3)n2)ccc2[nH]cnc12 | > 7.30 |

###

# Target desc: human recombinant GST-PAK1-KD protein (Homo sapiens)
# Construct: residues #249-545 of human PAK1, UniProtKP/Swiss Q13153; His6 (N); made in house; host or cells: Sf9 insect cells, pAcGP67 baculovirus expression vector
# Assay procedure: GST-PAK1-KD (kinase domain) biochemical assay, microfluidic mobility shift
# Assay conditions: GST-PAK1-KD Inhibition Assay - Example 65; read-out: PAK1 inhibition Ki
pKi: −log10 of the molar value.

| Compound | pKi |
| --- | --- |
| CC(CO)N(Cc1cc(F)cc2[nH]ncc12)c1nccc(Nc2cc(C3CC3)[nH]n2)n1 (stereo not shown) [II-56] | 8.38 |
| Fc1cc(CN(CCN2CCCC2)c2nccc(Nc3cc(C4CC4)[nH]n3)n2)c2cn[nH]c2c1 [II-59] | 8.22 |
| C[C@H](Nc1nccc(Nc2cc([C@H]3CC3(F)F)[nH]n2)n1)c1ccc2[nH]cnc2c1 [I-62] | 8.29 |
| CCN(Cc1ccc2[nH]cnc2c1Cl)c1nccc(Nc2cc([C@@H]3C[C@@H]3F)[nH]n2)n1 [II-51] | 8.60 |
| CN(Cc1ccc2[nH]cnc2c1Cl)c1nccc(Nc2cc(C(F)F)[nH]n2)n1 [II-81] | 7.71 |
| Clc1c(CNc2nccc(Nc3cc(C4CCCO4)[nH]n3)n2)ccc2[nH]cnc12 (stereo not shown) [I-109] | 7.56 |
| Clc1c(CNc2nccc(Nc3cc(COC4CCC4)[nH]n3)n2)ccc2[nH]cnc12 [II-43] | 6.55 |
| CN(C)CCN(Cc1cc(F)cc2[nH]ncc12)c1nccc(Nc2cc([C@@H]3C[C@@H]3F)[nH]n2)n1 [II-73] | 7.89 |
| C[C@H](Nc1nccc(Nc2cc(C3CC3)[nH]n2)n1)c1ccc2[nH]ccc2c1 [I-8] | 7.82 |
| Clc1cnc(NCc2ccc3[nH]cnc3c2Cl)nc1Nc1cc(C2CC2)[nH]n1 [I-106] | 7.83 |
| C[C@H](Nc1nccc(Nc2cc(CC3CC3)[nH]n2)n1)c1ccc2[nH]cnc2c1 [I-45] | 7.39 |
| CCOc1cc(Nc2ccnc(N(C)Cc3ccc4[nH]cnc4c3Cl)n2)n[nH]1 [II-33] | 7.01 |
| c1cc(CNc2nccc(Nc3cc(C4CC4)[nH]n3)n2)c2nc[nH]c2c1 [I-39] | 7.13 |
